- TARGET OR SYSTEM: MC1-R (B-16 mouse melanoma cells) (Mus musculus, UniProt Q01727)
- Construct: B-16 mouse melanoma cells (containing MC1-R); endogenous in cells; host or cells: B-16 mouse melanoma cells
- Sequence (Q01727 whole entry): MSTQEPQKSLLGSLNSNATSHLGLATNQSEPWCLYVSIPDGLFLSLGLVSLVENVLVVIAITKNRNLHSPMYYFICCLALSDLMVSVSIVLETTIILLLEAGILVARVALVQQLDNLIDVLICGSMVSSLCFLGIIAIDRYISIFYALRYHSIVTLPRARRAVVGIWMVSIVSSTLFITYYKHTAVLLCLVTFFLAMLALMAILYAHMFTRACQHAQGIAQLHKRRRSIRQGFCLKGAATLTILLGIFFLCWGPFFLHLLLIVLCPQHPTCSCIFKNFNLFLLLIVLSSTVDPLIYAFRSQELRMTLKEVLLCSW
- ASSAY METHOD TEXT: cAMP functional assay for agonist/antagonist status, MC1-R
- Type: cell-based
- REPORTED CONDITIONS: cAMP response ratio to NDP-α-MSH
Where a SMILES comes first, the peptide text is derived from it. Bridges are numbered along the chain shown (N, C = ends). [ ]: non-standard residue; d: D form. 1Nal = N[C@@H](Cc1cccc2ccccc12)C(=O)O; Nle = CCCC[C@H](N)C(=O)O
PROPERTY LABEL: efficacy relative to NDP-α-MSH, MC1-R

COMPOUND	TARGET OR SYSTEM	VALUE REPORTED
CCCC[C@H](NC(C)=O)C(=O)N[C@H]1CC(=O)NCCCC[C@@H](C(=O)N(C)C)NC(=O)[C@H](Cc2cccc3ccccc23)NC(=O)[C@H](CCCNC(=N)N)NC(=O)[C@@H](Cc2ccccc2)NC(=O)[C@H](Cc2c[nH]c3ccccc23)NC1=O [Example 10] (Ac-[Nle]DW[dF]R[1Nal]K-NMe2; lactam 2-7 (inferred))	MC1-R (B-16 mouse melanoma cells) (Mus musculus, UniProt Q01727)	1.1
CC(=O)N[C@H]1CC(=O)NCCCC[C@@H](C(=O)N(C)C)NC(=O)[C@H](Cc2c[nH]c3ccccc23)NC(=O)[C@H](CCCNC(=N)N)NC(=O)[C@@H](Cc2ccccc2)NC(=O)[C@H](Cc2c[nH]cn2)NC1=O	MC1-R (B-16 mouse melanoma cells) (Mus musculus, UniProt Q01727)	0.7
CCCC[C@H](NC(C)=O)C(=O)N[C@H]1CC(=O)NCCCC[C@@H](C(=O)NCC)NC(=O)[C@H](Cc2cccc3ccccc23)NC(=O)[C@H](CCCNC(=N)N)NC(=O)[C@@H](Cc2ccccc2)NC(=O)[C@H](Cc2c[nH]c3ccccc23)NC1=O [Example 18] (Ac-[Nle]DW[dF]R[1Nal]K-NHEt; lactam 2-7 (inferred))	MC1-R (B-16 mouse melanoma cells) (Mus musculus, UniProt Q01727)	0.3
CCNC(=O)[C@@H]1CCCCNC(=O)C[C@H](NC(C)=O)C(=O)N[C@@H](Cc2c[nH]cn2)C(=O)N[C@H](Cc2ccccc2)C(=O)N[C@@H](CCCNC(=N)N)C(=O)N[C@@H](Cc2c[nH]c3ccccc23)C(=O)N1	MC1-R (B-16 mouse melanoma cells) (Mus musculus, UniProt Q01727)	0.6

----------
- TARGET OR SYSTEM: MC3-R (Homo sapiens)
- Construct: expressed in transfected cells; host or cells: HEK-293
- Sequence (P41968 whole entry): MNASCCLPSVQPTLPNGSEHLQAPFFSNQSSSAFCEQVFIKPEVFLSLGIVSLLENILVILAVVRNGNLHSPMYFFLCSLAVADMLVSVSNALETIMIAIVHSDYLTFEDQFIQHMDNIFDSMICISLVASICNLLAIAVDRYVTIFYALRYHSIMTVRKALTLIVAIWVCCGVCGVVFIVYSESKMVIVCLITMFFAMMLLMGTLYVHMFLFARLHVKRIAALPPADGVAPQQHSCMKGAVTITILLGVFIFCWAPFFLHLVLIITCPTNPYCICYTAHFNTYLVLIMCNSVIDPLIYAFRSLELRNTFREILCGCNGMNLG
- ASSAY METHOD TEXT: Competitive inhibition Ki (AgRP), MC3-R
- Format: binding
- REPORTED CONDITIONS: AgRP as competing ligand
pKi: −log10 of the molar value.
PROPERTY LABEL: pKi

A: CCNC(=O)[C@@H]1CCCCNC(=O)C[C@H](NC(C)=O)C(=O)N[C@@H](Cc2c[nH]cn2)C(=O)N[C@H](Cc2ccccc2)C(=O)N[C@@H](CCCNC(=N)N)C(=O)N[C@@H](Cc2c[nH]c3ccccc23)C(=O)N1 [Example 12]
B: CCCC[C@H](NC(C)=O)C(=O)N[C@H]1CC(=O)NCCCC[C@@H](C(=O)NCC)NC(=O)[C@H](Cc2c[nH]c3ccccc23)NC(=O)[C@H](CCCNC(=N)N)NC(=O)[C@@H](Cc2ccccc2)NC(=O)[C@H](Cc2c[nH]cn2)NC1=O [Example 7]
Request: Among A and B , which shows a numerically higher pKi result? Choose, then provide that item's label.
Response: B
(B: 8.05, A: 6.34)

Reference source: patent US8247530B2
